# key: entry, value: Cyno T-cell Binding 0.2 uM (MFI)
# Target Or System: T1, cynomolgus monkey CD8 alpha on primary cynomolgus CD8+ T cells (cynomolgus monkey, UniProt P01732 23-235 (human entry))
# T1 construct: also called Cyno CD8alpha; cyno CD8A
# T1 sequence (P01732 other isoform, or with tags, fused parts or gaps limits assumed): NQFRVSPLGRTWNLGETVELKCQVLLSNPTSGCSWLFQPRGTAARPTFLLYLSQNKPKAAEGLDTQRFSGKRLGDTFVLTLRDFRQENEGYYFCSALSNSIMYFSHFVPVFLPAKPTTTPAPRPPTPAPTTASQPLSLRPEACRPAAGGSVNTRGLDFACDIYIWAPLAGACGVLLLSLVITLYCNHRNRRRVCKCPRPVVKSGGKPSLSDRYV
# Assay Procedure: flow cytometry, cyno CD8+ T cells
Give your result in MFI as a bare value.

Worked examples, 2 binders total:
{"columns": ["Binder", "Uom", "Cyno T-cell Binding 0.2 uM (MFI)"],
 "data": [
  ["P283HR7P1368_G1 (designed binder, FN3 domain) LPAPKNLVVSRVTEDSARLSWTAPDAAFDSFLITYWEIEPEGEAIFLGVPGSERSYDLTGLKPGTEYRVQINGVKGGTISYPLFAGFTT", "MFI", 11600],
  ["P283DR9P1364_B4 (designed binder, FN3 domain) LPAPKNLVVSRVTEDSARLSWTAPDAAFDSFAISYPEWPPPGEAIVLTVPGSERSYDLTGLKPGTEYWVIILGVKGGDQSWPLSAIFTT", "MFI", 20200]
]}

Briefly, Cyno T-cell Binding 0.2 uM (MFI) measured for P283GR7P1367_B9 (designed binder, FN3 domain) LPAPKNLVVSRVTEDSARLSWTAPDAAFDSFEIWYHEYHPRGEAIVLTVPSSERSYDLTGLKPGTEYDVVISGVKGGHWSYPLSAIFTT : 442

Data point: P283FR9P1366_H10 (designed binder, FN3 domain) LPAPKNLVVSRVTEDSARLSWTAPDAAFDSFNIAYPEWPPEGEAIVLTVPGSERSYDLTGLKPGTEYFVVIYGVKGGHLSDPLSAIFTT ; Cyno T-cell Binding 0.2 uM (MFI) = 13900

The binder P283DR9P1364_F8 (designed binder, FN3 domain) LPAPKNLVVSRVTEDSARLSWTAPDAAFDSFAIAYPEWPPGEAIVLTVPGSERSYDLTGLKPGTEYFVIIYGVKGGWTSPPLSAIFTT showed Cyno T-cell Binding 0.2 uM (MFI) equal to 1300
